Experiment: NCI Yeast Anticancer Drug Screen. Data for the bub3 strain (AID 167)
Settings: S. cerevisiae bub3 mutant strain, at 50.0 µM, stronger effect = higher value
Compounds without any hit were thinned out: in the full panel of roughly 79,000, 15% have a hit.
EXPERIMENTAL READOUT: growth inhibition (%)
Please respond with the number in % and leave the unit unwritten.

As a guide, the following entries are already answered.
                                   compound  recorded_number
0                               CN1CCCCC1=O             8.65
1  CCCCC1(C#Cc2ccccc2)Sc2ccccc2N1C (stereo not given)             -7.9
2         CCc1nc(N)nc(N)c1-c1ccc2nnn(O)c2c1                0
3         CN(C)C1(C(=O)O)c2ccccc2-c2ccccc21             16.3

Task item: I would be grateful if you could share the reported growth inhibition for O=C1c2ccccc2C(=O)C2C1C(c1ccccc1)N(c1ccccc1)C2c1ccccc1 (stereo not given) .
Reply: 2.65

Task item: I would be grateful if you could share the reported growth inhibition for "C/C=C/Sc1ccccc1C(=O)O" .
Reply: -22.6

Task item: I would be grateful if you could share the reported growth inhibition for "CC(=O)/C(=C/n1c(=S)sc2ccccc21)C(=O)Nc1ccccc1C" .
Reply: 9.2

Task item: I would be grateful if you could share the reported growth inhibition for CC(=O)SC1CS(=O)(=O)CC1SC(C)=O (stereo not given) .
Reply: 44.5

###

Assay: NCI Yeast Anticancer Drug Screen. Data for the rad50 strain (AID 155);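 note: 0% = growth of vehicle-only cultures of the same strain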
Details: S. cerevisiae rad50 strain growth inhibition; at 50.0 µM; stronger effect = higher value
About 79,000 compounds went through this panel and 15% of them were active in at least one assay; those are over-represented in the sample as a whole.
Listed next: entries and their corresponding growth inhibition.
Please respond with the number in % and leave the unit unwritten.

As a guide, the following entries are already answered.
                                   molecule  experimental_readout  unit_spec  recorded_number
0  CC1SCC(=O)N1c1nncs1 (stereo unspecified)     growth inhibition          %            -3.05
1                   CC1=CC(C)(C)Nc2ccccc2N1     growth inhibition          %             -7.1
2                       O=C(O)c1cocc1C(=O)O     growth inhibition          %              3.2
3  CCCCCCCCCC[C@@H](OC(C)=O)[C@@H]1CC[C@@H]([C@@H]2CC[C@@H]([C@@H](O)CC#C/C=C/CCCCCCC[C@@]3(Sc4ccccc4)C[C@H](C)OC3=O)O2)O1     growth inhibition          %            -27.9

Task item: I would be grateful if you could share the reported growth inhibition for CC(C)(C)[Si](C)(C)OCC1CCC(n2cnc3c(=O)[nH]cnc32)O1 (stereo unspecified) .
Reply: 14.7

Task item: I would be grateful if you could share the reported growth inhibition for "Cc1nc(=S)c2cnn(-c3ccccc3)c2[nH]1" .
Reply: -15.4

###

Listed next: entries and their corresponding growth inhibition.
Test: NCI Yeast Anticancer Drug Screen. Data for the rad50 strain (AID 155);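 note: 0% = growth of vehicle-only cultures of the same strain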
Conditions: S. cerevisiae rad50 strain growth inhibition; at 50.0 µM; stronger effect = higher value
About 79,000 compounds went through this panel and 15% of them were active in at least one assay; those are over-represented in the sample as a whole.
Please respond with the number in % and leave the unit unwritten.

>>> df
                                   molecule  recorded_number
0  CC1CC[N-]C(N)N1.CC1CC[N-]C(N)N1.[Cl][Pd][Cl] (centres undefined)             -3.5

Task item: I would be grateful if you could share the reported growth inhibition for "C1=Nc2ccccc2Cn2nncc21" .
Reply: 19.7

Task item: I would be grateful if you could share the reported growth inhibition for "Nc1[nH]c(=O)nc2c1cnn2Cc1ccccc1" .
Reply: -0.75

Task item: I would be grateful if you could share the reported growth inhibition for "CCCCNc1nnc(N)s1" .
Reply: 4.65
